We begin with a simple list: items and their reported growth inhibition.
assay.protocol: NCI Yeast Anticancer Drug Screen. Data for the bub3 strain (AID 167)
test.parameters: S. cerevisiae bub3 mutant strain, at 50.0 µM, active compounds read high
The panel holds about 79,000 compounds, 15% with a hit somewhere; the sample as a whole holds those more often.
Please state the figure in %; there is no need to write the unit.

Worked set:
COc1ccc(Cc2ccc(Cl)cc2)c(OC)c1; -12.2
CN(C)c1nc2ccccc2[nH]1; -4.85
CCOC(=O)C(=O)c1cn(C)c(=O)n(C)c1=O; 0.9
S=C1NNC(=S)NN1; 49.9

Looking up C/C(=N\N(C)/C=N/S(C)(=O)=O)c1ccccc1 , I found its growth inhibition recorded as -2.9

Looking up Cc1c(C(=O)O)[nH]c2c(Cl)ccc(C)c2c1=O , I found its growth inhibition recorded as 9.8

Looking up Nc1c([N+](=O)[O-])cc(F)cc1C(F)(F)F , I found its growth inhibition recorded as 5.4
